Structures can show the parent of a compound that is named as a salt.
Target or system human catalytic domain HDAC4 protein (Homo sapiens (Human), UniProt P56524); recorded quantity IC50.
// return numeric value only (unit: nM, not printed)

Here's what some known entries look like.
compound | test target | reading
O=C(NC1(CN2CCCC2C2CC2)CC1)c1ccc(-c2noc(C(F)(F)F)n2)cc1 (single isomer, unassigned) | human catalytic domain HDAC4 protein (Homo sapiens (Human), UniProt P56524) | 3
O=C(NC1(CN2CCC3(CC2)CC3)CC1)c1ccc(-c2noc(C(F)(F)F)n2)cc1 | human catalytic domain HDAC4 protein (Homo sapiens (Human), UniProt P56524) | 89
C[C@H]1CCCN1CC1CC1NC(=O)c1ccc(-c2noc(C(F)(F)F)n2)cc1 (single isomer, unassigned) | human catalytic domain HDAC4 protein (Homo sapiens (Human), UniProt P56524) | 230
CC1(C)CCCN(CC2(NC(=O)c3ccc(-c4noc(C(F)(F)F)n4)cc3)CC2)C1 [Example 8, formate] | human catalytic domain HDAC4 protein (Homo sapiens (Human), UniProt P56524) | 30

Q) Provide measured IC50 on human catalytic domain HDAC4 protein (Homo sapiens (Human), UniProt P56524) for CC1(C)CCCN(CC2(NC(=O)c3ccc(-c4noc(C(F)(F)F)n4)c(F)c3)CC2)C1 please.
Sequence (P56524 648-1032): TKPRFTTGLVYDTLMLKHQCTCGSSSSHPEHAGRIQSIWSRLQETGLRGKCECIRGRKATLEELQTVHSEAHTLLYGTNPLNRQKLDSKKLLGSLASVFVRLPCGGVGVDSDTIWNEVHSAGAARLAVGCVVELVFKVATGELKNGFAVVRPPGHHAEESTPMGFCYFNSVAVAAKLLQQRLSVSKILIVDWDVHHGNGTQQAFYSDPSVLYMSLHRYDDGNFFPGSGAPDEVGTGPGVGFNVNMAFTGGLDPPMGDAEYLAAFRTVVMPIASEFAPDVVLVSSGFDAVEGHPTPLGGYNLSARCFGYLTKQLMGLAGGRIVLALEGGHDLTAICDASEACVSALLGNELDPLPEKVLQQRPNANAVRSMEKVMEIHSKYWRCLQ
A) 76

* * *

- System: cellular Class I HDAC activity in Jurkat E6-1 cells
- assay notes: Inhibition of cellular Class I HDAC activity, Cell (Lys-Ac) substrate
- Assay type: cell-based
- condition set: Jurkat E6.1 cells, Boc-Lys(Ac)-AMC
Measured pIC50, listed per entry.
Interpret pIC50 as the negative base-10 log of the concentration measured in mol/L.

molecule | pIC50
O=C(NC1(CN2CCCC2C2CC2)CC1)c1ccc(-c2noc(C(F)(F)F)n2)cc1 (single isomer, unassigned) [Example 6] | 5.82

--- query ---
Q) Enter recorded pIC50 with cellular Class I HDAC activity in Jurkat E6-1 cells for O=C(NC1(CN2CCCC2C2CC2)CC1)c1ccc(-c2noc(C(F)(F)F)n2)cc1 (single isomer, unassigned) [Example 7] here.
A) 6.27

* * *

- Tested on: cellular Class I HDAC activity in Jurkat E6-1 cells
- assay notes: Inhibition of cellular Class I HDAC activity, Cell (Lys-Ac) substrate
- Assay type: cell-based
- condition set: Homo sapiens, Jurkat E6.1, Jurkat E6.1 cells, Boc-Lys(Ac)-AMC
Entries and their measured log10(IC50) follow.
log10 IC50, µM

Worked examples follow.
molecule | log10(IC50)
CC1(C)CCCN(CC2(NC(=O)c3ccc(-c4noc(C(F)(F)F)n4)c(F)c3)CC2)C1 | 1.18
O=C(NC1(CN2CCCC23COC3)CC1)c1ccc(-c2noc(C(F)(F)F)n2)cc1 | 0.93

Q) Determine from records and report log10(IC50) for O=C(NC1(CN2CCCC3(CC3)C2)CC1)c1ccc(-c2noc(C(F)(F)F)n2)cc1
A) 0.41

Q) Return value of log10(IC50) for input O=C(NC1(CN2CCC3(CC2)COC3)CC1)c1ccc(-c2noc(C(F)(F)F)n2)cc1 , no commentary.
A) 0.69

Q) Let me know recorded log10(IC50) for O=C(NC1(CN2CCC3(CC3)C2)CCC1)c1ccc(-c2noc(C(F)(F)F)n2)cc1 , thanks.
A) -0.15

* * *

- Test system: cellular Class I HDAC activity in Jurkat E6-1 cells
- assay notes: Inhibition of cellular Class I HDAC activity, Cell (Lys-Ac) substrate
- Type: cell-based
- condition set: Homo sapiens, Jurkat E6.1, Jurkat E6.1 cells, Boc-Lys(Ac)-AMC
pIC50: −log10 of the molar value. Structures can show the parent of a compound that is named as a salt.
Decision: pIC50 >= 5 yields Fulfilled, all other cases yield Not fulfilled.

molecule | class assignment
C[C@H]1CCCN1CC1CC1NC(=O)c1ccc(-c2noc(C(F)(F)F)n2)cc1 (single isomer, unassigned) | Not fulfilled
CC1(C)CCCN(CC2(NC(=O)c3ccc(-c4noc(C(F)(F)F)n4)cc3)CC2)C1 [Example 8, formate] | Fulfilled

// switching to the query molecule
Q) Could you please find out whether O=C(NC1(CN2CCC3(CC2)CC3)CC1)c1ccc(-c2noc(C(F)(F)F)n2)cc1 has pIC50 that meets 5 or exceeds it?
A) Fulfilled
